FYI, the data here is from patent US5008273A.

Please go through the items and note down their pIC50.
molecular target: angiotensin converting enzyme (Homo sapiens, UniProt P12821); test: inhibition of the isolated angiotensin converting enzyme
Sequence (P12821 30-1306, species assumed): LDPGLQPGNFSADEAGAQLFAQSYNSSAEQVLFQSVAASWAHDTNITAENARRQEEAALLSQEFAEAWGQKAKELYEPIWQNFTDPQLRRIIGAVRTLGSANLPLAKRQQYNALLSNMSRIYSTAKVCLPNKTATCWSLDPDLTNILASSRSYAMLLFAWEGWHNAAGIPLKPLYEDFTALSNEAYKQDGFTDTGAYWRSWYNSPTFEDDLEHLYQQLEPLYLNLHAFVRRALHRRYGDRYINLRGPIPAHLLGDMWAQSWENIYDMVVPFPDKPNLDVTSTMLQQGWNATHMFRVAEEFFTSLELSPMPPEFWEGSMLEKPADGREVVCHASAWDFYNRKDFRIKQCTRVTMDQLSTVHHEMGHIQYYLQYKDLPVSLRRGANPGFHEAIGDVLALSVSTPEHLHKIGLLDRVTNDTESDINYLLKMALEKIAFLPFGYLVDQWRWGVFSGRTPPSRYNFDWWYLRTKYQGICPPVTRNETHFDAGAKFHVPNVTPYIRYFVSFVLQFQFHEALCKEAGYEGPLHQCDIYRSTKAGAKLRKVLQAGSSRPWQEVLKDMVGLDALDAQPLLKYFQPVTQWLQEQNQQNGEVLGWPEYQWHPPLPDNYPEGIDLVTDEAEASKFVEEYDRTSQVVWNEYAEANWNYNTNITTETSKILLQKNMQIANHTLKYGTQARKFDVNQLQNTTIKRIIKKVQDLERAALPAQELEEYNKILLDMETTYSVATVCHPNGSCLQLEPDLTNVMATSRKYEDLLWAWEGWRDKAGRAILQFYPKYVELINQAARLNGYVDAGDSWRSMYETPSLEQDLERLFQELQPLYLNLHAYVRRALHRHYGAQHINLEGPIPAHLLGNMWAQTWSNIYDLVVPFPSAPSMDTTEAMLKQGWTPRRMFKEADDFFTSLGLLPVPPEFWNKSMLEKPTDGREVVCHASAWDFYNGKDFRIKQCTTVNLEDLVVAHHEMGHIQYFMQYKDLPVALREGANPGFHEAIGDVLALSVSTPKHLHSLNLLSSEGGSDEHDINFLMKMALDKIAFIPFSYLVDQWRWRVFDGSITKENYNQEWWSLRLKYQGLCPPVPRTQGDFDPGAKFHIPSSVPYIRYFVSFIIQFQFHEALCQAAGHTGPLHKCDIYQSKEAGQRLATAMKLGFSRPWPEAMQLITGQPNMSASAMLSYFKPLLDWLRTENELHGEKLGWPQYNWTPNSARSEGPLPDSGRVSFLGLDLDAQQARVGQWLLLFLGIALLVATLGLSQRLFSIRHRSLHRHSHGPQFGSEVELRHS
Lab note: report pIC50 as minus log10 of the concentration in molar units, number only.

Fill in: pIC50 of NCCCC[C@H](N[C@@H](CCc1ccccc1)C(=O)O)C(=O)N1CCc2sccc2[C@H]1C(=O)O is ___ 8.46

Try this molecule next: NCCCC[C@H](N[C@@H](CCc1ccccc1)C(=O)O)C(=O)N1Cc2sccc2C[C@H]1C(=O)O 7.85

Try this molecule next: NCCCC[C@H](N[C@@H](CCc1ccccc1)C(=O)O)C(=O)N1CCc2ccsc2[C@@H]1C(=O)O 7.74

Try this molecule next: NCCCC[C@H](N[C@@H](CCc1ccccc1)C(=O)O)C(=O)N1Cc2ccsc2C[C@H]1C(=O)O 8.54
